Experiment Summary: Cytotoxicity against human NB39 cells after 48 hrs by MTT assay
Assay type: functional, cell-based
Stated Conditions: NB39, 48 h
Can you tell me IC50 for the items I'm about to list?
Please give a number only; it is taken to be in µM.

Lookup result for C=C(C)[C@@H]1CC[C@]2(C)CC[C@]3(C)[C@H](CC[C@@H]4[C@@]5(C)CC[C@H](O)[C@](C)(C(=O)O)[C@@H]5CC[C@]43C)[C@@H]12 ; measured IC50: 4.1

Lookup result for C=C(C)[C@@H]1CC[C@]2(C)CC[C@]3(C)[C@H](CC[C@@H]4[C@@]5(C)CC[C@H](OC(C)=O)[C@](C)(C(=O)O)[C@@H]5CC[C@]43C)[C@@H]12 ; measured IC50: 4.1
